Sourced from the Immune Epitope Database (IEDB)

molecular target: HLA-B*44:03; test: IEDB peptide-MHC binding, purified MHC/competitive/radioactivity; filed as Kd, often an IC50 or EC50 that approximates it; bounds were set here for any values at or beyond the usual limits of such assays; settings: source organism: SARS coronavirus Tor2
parameter_measured: log10 Kd (log10 of the value in µM)
// units: µM (pre-log); metric: Kd; scale: log10

Worked examples, 2 sequences total:
{"record_sequence": "QESLTTTSTA", "study_target": "HLA-B*44:03", "log10 Kd": -0.17}
{"record_sequence": "KETSYTTTI", "study_target": "HLA-B*44:03", "log10 Kd": -0.90}

Short answer for `NECAQVLSEM` : log10 Kd was -0.92

Short answer for `VESSSKLWA` : log10 Kd was 0.20

Short answer for `LEQWNLVIGF` : log10 Kd was -1.31

Short answer for `QEAYYRARA` : log10 Kd was 0.86

Short answer for `QEIQLLAAVG` : log10 Kd was -0.36
